Origin of the recorded values: patent US20230287048A1

assay: Binding affinity (Kd) between peptide and LPS by isothermal titration calorimeter (ITC); conditions: 0.2 mM peptide in cell, 2 mM LPS in syringe, PBS, read-out: Kd (calculated by ITC)
pKd: −log10 of the molar value. Where a SMILES comes first, the peptide text is derived from it. [ ]: non-standard residue; d: D form.
Threshold rule: pKd greater than or equal to 5 is Met; below that, Not met.

molecule | qualitative.label
CC(C)C[C@@H](NC(=O)[C@H](N)CCCCN)C(=O)N[C@H](CCCNC(=N)N)C(=O)N[C@@H](C(=O)N[C@H](CCCCN)C(=O)N[C@H](CC(C)C)C(=O)N[C@H](CCCNC(=N)N)C(=O)N[C@H](CCCNC(=N)N)C(=O)N[C@H](Cc1ccc(O)cc1)C(=O)N[C@H](CC(C)C)C(=O)N[C@H](CCCNC(=N)N)C(N)=O)C(C)C [allD-FP-13-NH2 (AcOH), KLRVKLRRYLR-NH2] (H-[dK][dL][dR][dV][dK][dL][dR][dR][dY][dL][dR]-NH2; N-terminus assumed) | Not met
CC(C)C[C@@H](NC(=O)[C@H](N)CCCCN)C(=O)N[C@H](CCCNC(=N)N)C(=O)N[C@@H](C(=O)N[C@H](CCCCN)C(=O)N[C@H](CC(C)C)C(=O)N[C@H](CCCNC(=N)N)C(=O)N[C@H](CCCNC(=N)N)C(=O)N[C@H](CCCCN)C(=O)N[C@H](CC(C)C)C(=O)N[C@H](CCCNC(=N)N)C(N)=O)C(C)C [allD-FP-13-9k-NH2, Klrvklrrklr-NH2] (H-[dK][dL][dR][dV][dK][dL][dR][dR][dK][dL][dR]-NH2; N-terminus assumed) | Met
CC(C)C[C@@H](NC(=O)[C@H](N)CCCNC(=N)N)C(=O)N[C@H](CCCNC(=N)N)C(=O)N[C@@H](C(=O)N[C@H](CCCCN)C(=O)N[C@H](CC(C)C)C(=O)N[C@H](CCCNC(=N)N)C(=O)N[C@H](CCCNC(=N)N)C(=O)N[C@H](Cc1ccc(O)cc1)C(=O)N[C@H](CC(C)C)C(=O)N[C@H](CCCNC(=N)N)C(N)=O)C(C)C [allD FP12-NH2, RLRVKLRRYLR-NH2] (H-[dR][dL][dR][dV][dK][dL][dR][dR][dY][dL][dR]-NH2; N-terminus assumed) | Not met
CC(C)C[C@@H](NC(=O)[C@H](N)CCCCN)C(=O)N[C@H](CCCNC(=N)N)C(=O)N[C@@H](C(=O)N[C@H](CCCCN)C(=O)N[C@H](CC(C)C)C(=O)N[C@H](CCCNC(=N)N)C(=O)N[C@H](CCCNC(=N)N)C(=O)N[C@H](Cc1ccc(O)cc1)C(=O)N[C@H](CC(C)C)C(=O)N[C@H](CCCNC(=N)N)C(N)=O)C(C)C [allD FP13-NH2, KLRVKLRRYLR-NH2] (H-[dK][dL][dR][dV][dK][dL][dR][dR][dY][dL][dR]-NH2; N-terminus assumed) | Met

QUERY: Please tell me: is the molecule CC(C)C[C@@H](NC(=O)[C@H](N)CCCCN)C(=O)N[C@H](CCCNC(=N)N)C(=O)N[C@@H](C(=O)N[C@H](CCCCN)C(=O)N[C@H](CC(C)C)C(=O)N[C@H](CCCNC(=N)N)C(=O)N[C@H](CCCNC(=N)N)C(=O)N[C@H](Cc1c[nH]c2ccccc12)C(=O)N[C@H](CC(C)C)C(=O)N[C@H](CCCNC(=N)N)C(N)=O)C(C)C [allD-FP-13-9w-NH2, Klrvklrrwlr-NH2] (H-[dK][dL][dR][dV][dK][dL][dR][dR][dW][dL][dR]-NH2; N-terminus assumed) at or over 5 in terms of pKd?
RESULT: Not met

---

assay: Binding affinity (Kd) between peptide and LPS by isothermal titration calorimeter (ITC); conditions: 0.2 mM peptide in cell, 2 mM LPS in syringe, PBS, read-out: Kd (calculated by ITC)
Where no end group is shown, it is not given here.
reported.property: pKd
The quantity pKd is defined as the negative base-10 logarithm of the molar concentration.

Sample records with pKd:
substance | obs.value
KLGVEALRYLD [FP9, KLGVEALRYLD] | 3.49
RLRVKLRRYLR-NH2 [FP12-NH2, RLRVKLRRYLR-NH2] | 6.62
LRLGVEAKRYLR [FP5, LRLGVEAKRYLR] | 3.07

QUERY: Please report the recorded pKd for KLRVKLRRYLR-NH2 [FP13-NH2, KLRVKLRRYLR-NH2] .
RESULT: 3.93

QUERY: Could you share which pKd value was measured for KLGVEAKRYLD [FP1(WT), KLGVEAKRYLD, reference compound] ?
RESULT: 3.62

QUERY: pKd lookup needed for LRLGVELKRYLR [FP6, LRLGVELKRYLR] , thanks.
RESULT: 4.95

QUERY: Need pKd, item KLGVEAKRYLR [FP3, KLGVEAKRYLR]
RESULT: 3.48
